- Study target: E3 ubiquitin-protein ligase XIAP (Homo sapiens) (UniProt P98170)
- Sequence (P98170 whole entry, looked up): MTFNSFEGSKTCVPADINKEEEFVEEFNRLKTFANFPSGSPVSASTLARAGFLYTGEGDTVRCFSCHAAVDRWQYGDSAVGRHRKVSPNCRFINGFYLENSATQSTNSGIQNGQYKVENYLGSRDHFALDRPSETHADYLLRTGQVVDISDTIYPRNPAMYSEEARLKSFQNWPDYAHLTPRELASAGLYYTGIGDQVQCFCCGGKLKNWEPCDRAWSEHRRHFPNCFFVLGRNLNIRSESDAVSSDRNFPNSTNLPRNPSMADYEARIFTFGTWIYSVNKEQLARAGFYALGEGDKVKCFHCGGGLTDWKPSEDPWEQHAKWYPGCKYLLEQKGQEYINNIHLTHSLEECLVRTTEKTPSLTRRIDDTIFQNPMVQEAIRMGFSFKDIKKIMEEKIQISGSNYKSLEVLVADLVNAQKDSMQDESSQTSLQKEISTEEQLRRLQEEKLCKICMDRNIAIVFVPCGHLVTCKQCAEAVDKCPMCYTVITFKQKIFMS
- Protocol text: XIAP binders, primary screen, biophysical, small-molecule microarray, fluorescence 635 nm (AID 1181);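 also: score merges 667 nm emission and signal to noise over triplicate slides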
- Condition info: small-molecule microarray binding, higher = more signal
Measured endpoint: composite z-score

INSERT INTO assay_data (compound, measured_endpoint, measured_number) VALUES
  ('COc1cc(CO)cc(I)c1O[C@H]1C=C(C(=O)NCCO)C[C@@H](NCc2ccc(F)cc2)[C@@H]1O', 'composite z-score', -0.101),
  ('COCCOC(=O)N1C(=O)[C@@]2(c3cc(C#CC4=CCCCC4)ccc31)[C@H](C(=O)N1CCCCCCC1)[C@H]1C(=O)O[C@H](c3ccccc3)[C@H](c3ccccc3)N1[C@@H]2c1ccc(O)cc1', 'composite z-score', -0.0025),
  ('COC(=O)[C@@]1(Cc2ccc(OC)cc2)[C@H]2c3cc(C(=O)N(C)C)n(C[C@H](O)CO)c3C[C@H]2CN1C(=O)c1ccccc1', 'composite z-score', 0.441),
  ('C=C(CCCC)/C(=C/C[C@@H](OC(=O)c1ccncc1)c1ccccc1OCCO)c1cnc2ccccc2c1', 'composite z-score', -0.0599),
  ('CC(C)N1CC=CC23O[C@@H]4C=CCOC(=O)[C@@H]4[C@H]2C(=O)N(CCCO)[C@@H]3C1=O (stereo partly specified)', 'composite z-score', 0.29),
  ('COCCOC(=O)N1C(=O)[C@@]2(c3cc(C#CCNC(N)=O)ccc31)[C@H](C(=O)N1CCc3cc(OC)c(OC)cc3C1)[C@H]1C(=O)O[C@H](c3ccccc3)[C@H](c3ccccc3)N1[C@@H]2c1ccccc1OCCO', 'composite z-score', 0.0578);

###

# Lookup of reported composite z-score keyed by entry
- Protocol text: small-molecule microarray binders of probe aWnt5a, primary screen, biochemical, biotinylated probe, 635/667 nm fluorescence (AID 1113);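 also: score merges 667 nm fluorescence intensity with signal-to-noise per printed feature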
- Condition info: higher = more signal
Measured endpoint: composite z-score

INSERT INTO measurements (compound, measured_endpoint, measured_number) VALUES
  ('CCOC(=O)C1=C[C@@H](c2ccccc2)N(S(=O)(=O)c2ccc(C)cc2)[C@H]1c1ccccc1Cl', 'composite z-score', -0.0161),
  ('CN(C)CCCCNC(=O)[C@@H]1C[C@@H]2C(=O)N[C@@H](Cc3ccccc3)C(=O)N2[C@@H]1c1cccc(OCCO)c1', 'composite z-score', -0.127),
  ('C[C@H]1NC(=O)[C@@]23C(=O)N[C@@H](Cc4ccccc4)C2[C@H](C)[C@@]2(C)O[C@H]2C3/C=C/C/C=C\CNC(=O)[C@H](Cc2ccccc2)NC1=O (some centres not stated)', 'composite z-score', -0.0445),
  ('COc1ccc(NC(=O)O[C@H]2[C@H](OC(=O)Nc3ccccc3)[C@H](OC(=O)Nc3ccccc3)[C@@H](OC)O[C@@H]2CO)cc1', 'composite z-score', 0.161),
  ('COc1ccc([Si](C)(C)[C@@H]2[C@@H](CCO)O[C@]3(C(=O)N(Cc4ccc(N5CCCCC5=O)cc4)c4ccccc43)[C@H]2C)cc1', 'composite z-score', -0.0758),
  ('CC(CO)N1C(=O)[C@@H]2[C@H]3C(=O)OCC=C[C@H]3OC23C=CCN(C(C)(C)C)C(=O)[C@@H]13 (some centres not stated)', 'composite z-score', 0.308),
  ('CC(C)(C)N1CC=CC23O[C@@H]4C=CCCOC(=O)C4[C@H]2C(=O)N(CCO)[C@@H]3C1=O (some centres not stated)', 'composite z-score', -0.0924);
